Tested on: Escherichia coli TOP10
Test summary: shrunken log2 fold change of peptide-encoding DNA abundance (4.5 h post-induction vs induction); higher = less antimicrobial activity (less host growth inhibition)
Particulars: time post-induction: 4.5 h; library: site-saturation at positions 5, 18, 19, 20
Parameter threshold = -0.01. Response is t when shrunken log2 fold change meets or exceeds it, else f.

Field: example entries. Status: answers known.
sequence_content=RRIRWRPPRLPRPRPRPMDKPRP group=f
sequence_content=RRIRIRPPRLPRPRPRPLQGPRP group=f
sequence_content=RRIRFRPPRLPRPRPRPPPAPRP group=t
sequence_content=RRIRNRPPRLPRPRPRPHVFPRP group=f
sequence_content=RRIRPRPPRLPRPRPRPVGVPRP group=t

Identify whether the reported shrunken log2 fold change of the following sequence is -0.01 or greater: RRIRARPPRLPRPRPRPREDPRP
t

Item RRIRKRPPRLPRPRPRPEMWPRP with shrunken log2 fold change of -0.01 or above?
t

###

Test system: Escherichia coli TOP10
Test summary: shrunken log2 fold change of peptide-encoding DNA abundance (4.5 h post-induction vs induction); higher = less antimicrobial activity (less host growth inhibition)
Particulars: time post-induction: 4.5 h; library: site-saturation at positions 5, 18, 19, 20
So basically: shrunken log2 fold change at 0.08 or higher? That is 1.0. Lower than 0.08? That is 0.0.

sequence_content=RRIRIRPPRLPRPRPRPSFSPRP group=0.0

Decide: is the reported value of shrunken log2 fold change for RRIRYRPPRLPRPRPRPTGSPRP equal to or greater than 0.08?
0.0

Dear colleague, could you confirm whether RRIRQRPPRLPRPRPRPKCSPRP has shrunken log2 fold change at or above 0.08?
0.0

# check: shrunken log2 fold change of RRIRRRPPRLPRPRPRPKYAPRP is greater than or equal to 0.08
0.0

###

System: Escherichia coli TOP10
Test summary: shrunken log2 fold change of peptide-encoding DNA abundance (4.5 h post-induction vs induction); higher = less antimicrobial activity (less host growth inhibition)
Particulars: time post-induction: 4.5 h; library: site-saturation at positions 5, 18, 19, 20
Measurement type: shrunken log2 fold change
Form field (numeric): enter value without unit.

sequence_content=RRIRARPPRLPRPRPRPRKEPRP measurement=-0.0116
sequence_content=RRIRIRPPRLPRPRPRPLTYPRP measurement=-0.495
sequence_content=RRIRSRPPRLPRPRPRPTPIPRP measurement=0.0944
sequence_content=RRIRIRPPRLPRPRPRPILFPRP measurement=-0.273

Consider the record given below.
The sequence RRIRMRPPRLPRPRPRPSMLPRP on Escherichia coli TOP10: shrunken log2 fold change was 0.0158

###

Quick list: shrunken log2 fold change per entry.
System: Escherichia coli TOP10
Test summary: shrunken log2 fold change of peptide-encoding DNA abundance (4.5 h post-induction vs induction); higher = less antimicrobial activity (less host growth inhibition)
Particulars: time post-induction: 4.5 h; library: site-saturation at positions 5, 18, 19, 20
Kindly provide the number alone.

Some solved entries appear below for comparison.
sequence_content=RRIRRRPPRLPRPRPRPSHSPRP measurement=-0.00512
sequence_content=RRIRDRPPRLPRPRPRPAANPRP measurement=0.273
sequence_content=RRIRRRPPRLPRPRPRPVIWPRP measurement=0.185
sequence_content=RRIRYRPPRLPRPRPRPQQEPRP measurement=-0.0075
sequence_content=RRIRQRPPRLPRPRPRPGHRPRP measurement=0.0349

get_value(item= RRIRARPPRLPRPRPRPHETPRP , readout=shrunken log2 fold change) returns 0.062

What the record says about RRIRYRPPRLPRPRPRPPKGPRP : shrunken log2 fold change is -0.163

Lab note: measured shrunken log2 fold change of RRIRARPPRLPRPRPRPEAGPRP was 1.5

The value of shrunken log2 fold change measured for the sequence RRIRFRPPRLPRPRPRPIVFPRP turned out to be -0.0906

The reported value for RRIRSRPPRLPRPRPRPCICPRP in terms of shrunken log2 fold change is -0.209

Notebook: RRIRCRPPRLPRPRPRPCAWPRP , shrunken log2 fold change read as 0.0576

###

System: Escherichia coli TOP10
Test summary: shrunken log2 fold change of peptide-encoding DNA abundance (4.5 h post-induction vs induction); higher = less antimicrobial activity (less host growth inhibition)
Particulars: time post-induction: 4.5 h; library: site-saturation at positions 5, 18, 19, 20
Rule: shrunken log2 fold change under -0.2 gives 0 (no), otherwise 1 (yes).

Below are worked cases with known answers.
sequence_content=RRIRYRPPRLPRPRPRPVSQPRP group="0 (no)"
sequence_content=RRIRPRPPRLPRPRPRPSHFPRP group="0 (no)"
sequence_content=RRIRIRPPRLPRPRPRPMCPPRP group="1 (yes)"
sequence_content=RRIRERPPRLPRPRPRPFCEPRP group="1 (yes)"

State whether the measured shrunken log2 fold change reaches -0.2, counting equality as reaching it, for RRIRGRPPRLPRPRPRPDKIPRP
1 (yes)

Assess whether reported shrunken log2 fold change for RRIRGRPPRLPRPRPRPYWDPRP sits at -0.2 or higher.
0 (no)

Is the recorded value of shrunken log2 fold change equal to or greater than -0.2 for this sequence? RRIRVRPPRLPRPRPRPHKFPRP
1 (yes)

# check: shrunken log2 fold change of RRIRDRPPRLPRPRPRPFYQPRP is greater than or equal to -0.2
0 (no)

Would you say RRIRSRPPRLPRPRPRPQPAPRP shows shrunken log2 fold change at minimum -0.2?
1 (yes)

shrunken log2 fold change >= -0.2 for RRIRQRPPRLPRPRPRPVPHPRP ?
1 (yes)

Does shrunken log2 fold change meet or surpass -0.2 for RRIRCRPPRLPRPRPRPDRTPRP ?
1 (yes)

Determine whether measured shrunken log2 fold change meets or exceeds -0.2 for RRIRPRPPRLPRPRPRPYWIPRP
0 (no)

###

Tested on: Escherichia coli TOP10
Test summary: shrunken log2 fold change of peptide-encoding DNA abundance (4.5 h post-induction vs induction); higher = less antimicrobial activity (less host growth inhibition)
Particulars: time post-induction: 4.5 h; library: site-saturation at positions 5, 18, 19, 20
Kindly return condition met if reported shrunken log2 fold change is no lower than 0.02; return condition not met if it is lower.

# example entries with known answers
sequence_content=RRIRMRPPRLPRPRPRPIFMPRP group="condition not met"
sequence_content=RRIRSRPPRLPRPRPRPVGLPRP group="condition met"
sequence_content=RRIRHRPPRLPRPRPRPQLHPRP group="condition not met"

In plain terms: is recorded shrunken log2 fold change at least 0.02 for RRIRCRPPRLPRPRPRPLVQPRP ?
condition met

###

Tested on: Escherichia coli TOP10
Test summary: shrunken log2 fold change of peptide-encoding DNA abundance (4.5 h post-induction vs induction); higher = less antimicrobial activity (less host growth inhibition)
Particulars: time post-induction: 4.5 h; library: site-saturation at positions 5, 18, 19, 20
Measurement type: shrunken log2 fold change
Enter the number alone.

Some solved cases for reference:
sequence_content=RRIRSRPPRLPRPRPRPWSNPRP measurement=-0.0394
sequence_content=RRIRVRPPRLPRPRPRPNDVPRP measurement=-0.116

Quick note, shrunken log2 fold change for RRIRLRPPRLPRPRPRPYEPPRP landed at -0.0278

For this sequence ( RRIRYRPPRLPRPRPRPQLAPRP ), measured shrunken log2 fold change is -0.228

shrunken log2 fold change reading for RRIRIRPPRLPRPRPRPTHQPRP : 0.0537

Short answer for RRIRKRPPRLPRPRPRPDIVPRP : shrunken log2 fold change was 1.54

Per the record, RRIRQRPPRLPRPRPRPWSYPRP has shrunken log2 fold change of -0.106

###

Tested on: Escherichia coli TOP10;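 note: peptides expressed intracellularly from a pBAD plasmid library in pooled LB shake-flask culture, induced with 0.3% L-arabinose, DNA abundance read by NGS, three biological replicates, DESeq2 with apeglm shrinkage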
Test summary: shrunken log2 fold change of peptide-encoding DNA abundance (4.5 h post-induction vs induction); higher = less antimicrobial activity (less host growth inhibition)
Particulars: time post-induction: 4.5 h; library: site-saturation at positions 5, 18, 19, 20
Examples of sequences with documented shrunken log2 fold change follow.
Write the number on its own, no unit after it.

Study these solved cases before continuing.
sequence_content=RRIRFRPPRLPRPRPRPRKEPRP experimental_target="Escherichia coli TOP10" measurement=-0.0425
sequence_content=RRIRARPPRLPRPRPRPCSHPRP experimental_target="Escherichia coli TOP10" measurement=0.0574
sequence_content=RRIRARPPRLPRPRPRPMSLPRP experimental_target="Escherichia coli TOP10" measurement=-0.229
sequence_content=RRIRYRPPRLPRPRPRPYQRPRP experimental_target="Escherichia coli TOP10" measurement=-0.00973
sequence_content=RRIRGRPPRLPRPRPRPHWPPRP experimental_target="Escherichia coli TOP10" measurement=2.63

So, RRIRSRPPRLPRPRPRPCVLPRP ? Its shrunken log2 fold change was -0.247

Field shrunken log2 fold change (entry RRIRSRPPRLPRPRPRPSIEPRP ) reads -0.013
